Would you mind telling me the reported z-score of each entry?
- ASSAY_PROTOCOL: inhibitors of hydroxyurea-induced Chk1 phosphorylation, primary screen, imaging, HeLa, phospho-Chk1 nuclear intensity (AID 1187); further: test concentration not given here
- SETTINGS: hydroxyurea-induced phospho-Chk1 immunofluorescence imaging, higher = more signal
Activity calls are given as the source filed them. How the calls were made is not given here.

Ask: Given `CC(C)CNC(=O)[C@@H]1c2ccccc2C(=O)N(CC23CC4CC(CC(C4)C2)C3)[C@H]1c1ccc(CO)cc1` , state its recorded z-score.
Reply: -0.0264 (inactive)

Ask: Given `COCCCN1C(=O)[C@@]2(Cc3ccccc31)c1ccccc1C(=O)N(Cc1ccccc1OC)[C@H]2c1ccc(CO)cc1` , state its recorded z-score.
Reply: 0.217 (inactive)

Ask: Given `CCOC(=O)C[C@H]1[C@H](OC(=O)Cc2ccc3c(c2)OCO3)[C@@H](NC(=O)c2ccccc2)c2cc(OCCCO)ccc2N1C(=O)Cc1ccc(OC)cc1` , state its recorded z-score.
Reply: -1.25 (inactive)

Ask: Given CCCCCCCCCCC(O)C1C=CC2C(=O)N(C)C(=O)C2N1N1CCCCC1 (centres undefined) , state its recorded z-score.
Reply: 0.303 (inactive)

---

Would you mind telling me the reported z-score of each entry?
- ASSAY_PROTOCOL: cell viability in Huh7 cells, primary screen, cytotoxicity control for HCV replication inhibitor project, CellTiter-Glo luminescence, basal, 48 h (AID 1143);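 further: Huh7 hepatoma cells carrying a hepatitis C replication reporter with no stimulus; test concentration not given here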
- SETTINGS: Huh7 HCV replicon, higher = more signal, called active from +8 up or from −8 down
Activity calls are given as the source filed them.

Ask: Given `COC(=O)[C@@]1(Cc2ccc(F)cc2)[C@H]2c3cc(C(=O)N(C)C)n(CCO)c3C[C@H]2CN1C(=O)c1ccccc1` , state its recorded z-score.
Reply: -0.494 (inactive)

Ask: Given `COCCOC(=O)N1C(=O)[C@@]2(c3cc(C#CCNC(N)=O)ccc31)[C@H](C(=O)NC[C@H](O)c1ccccc1)[C@H]1C(=O)O[C@H](c3ccccc3)[C@H](c3ccccc3)N1[C@@H]2c1ccc(OCCO)cc1` , state its recorded z-score.
Reply: -0.8 (inactive)

Ask: Given `C=C(COC)/C(=C/C[C@H](OC(=O)c1ccncc1)c1ccc(OCCO)cc1)c1cc(C(=O)OC)ccc1OC` , state its recorded z-score.
Reply: -3.86 (inactive)

Ask: Given `COCCOC(=O)N1C(=O)[C@@]2(c3ccccc31)[C@H](C(N)=O)[C@H]1C(=O)O[C@H](c3ccccc3)[C@H](c3ccccc3)N1[C@@H]2c1ccc(OCCO)cc1` , state its recorded z-score.
Reply: -1.57 (inactive)

Ask: Given `C=C(/C(=C/C[C@H](OC(=O)c1ccncc1)c1ccccc1OCCO)c1cc(C(=O)OC)ccc1OC)C(C)C` , state its recorded z-score.
Reply: -1.5 (inactive)

---

- ASSAY_PROTOCOL: A549 cell viability effects, profiling panel, calcein-AM fluorescence, 48 h, basal (AID 1162); further: test concentration not given here
- SETTINGS: higher = more signal
PARAMETER: z-score
# respond with the number and nothing more

Ask: Given `O=C1O[C@H](c2ccccc2)[C@H](c2ccccc2)N2[C@H]1[C@@H](C(=O)NC[C@H](O)c1ccccc1)[C@]1(C(=O)Nc3ccc(C#CCCO)cc31)[C@H]2c1ccccc1OCCO` , state its recorded z-score.
Reply: -0.661

Ask: Given `COCCOC(=O)N1C(=O)[C@@]2(c3cc(C#CCC(C(=O)OC)C(=O)OC)ccc31)[C@H](C(N)=O)[C@H]1C(=O)O[C@H](c3ccccc3)[C@H](c3ccccc3)N1[C@@H]2c1ccc(OCCO)cc1` , state its recorded z-score.
Reply: -0.0635

Ask: Given CC(C)c1ccc(NN2C(C(O)C(C)C)C=CC3C(=O)N(c4ccccc4)C(=O)C32)cc1 (stereo unspecified) , state its recorded z-score.
Reply: -0.149

Ask: Given `CCc1cccc(NC(=O)O[C@H]2[C@H](OC(=O)Nc3ccc4c(c3)OCO4)[C@H](OC(=O)Nc3ccc4c(c3)OCO4)[C@@H](OC)O[C@@H]2CO)c1` , state its recorded z-score.
Reply: -1.45

Ask: Given O=C1OCCC=C[C@H]2OC34C=CCN(c5ccc(Cl)cc5)C(=O)[C@H]3N(CCO)C(=O)[C@@H]4C12 (stereo partly specified) , state its recorded z-score.
Reply: -0.384

Ask: Given `CO[C@H]1O[C@H](CO)[C@@H](OC(=O)Nc2ccc(C(F)(F)F)cc2)[C@H](OC(=O)Nc2ccccc2-c2ccccc2)[C@H]1OC(=O)Nc1ccccc1-c1ccccc1` , state its recorded z-score.
Reply: -4.38

Ask: Given `COC(=O)[C@@H]1N=C(c2ccc(OCCCO)cc2)O[C@@H]1c1ccccc1CN=[N+]=[N-]` , state its recorded z-score.
Reply: 0.432

Ask: Given `COCC(=C=CC[C@@H](O)c1ccc(OCCO)cc1)C[C@@H](O)COCc1ccccc1` , state its recorded z-score.
Reply: 0.517

Ask: Given `CO[C@H]1O[C@H](CO)[C@@H](OC(=O)Nc2ccccc2)[C@@H]2OC(=O)[C@H](Cc3ccccc3)C/C=C/C[C@@H](Cc3ccccc3)C(=O)O[C@@H]12` , state its recorded z-score.
Reply: -0.152

Ask: Given `CCCCC(=C=CC[C@H](O)c1ccc(OCCO)cc1)C[C@H](O)c1ccccn1` , state its recorded z-score.
Reply: 1.47

Ask: Given `NCCCC[C@@H]1NC(=O)[C@H]2C[C@@H](C(=O)O)[C@@H](c3cccc(OCCO)c3)N2C1=O` , state its recorded z-score.
Reply: -0.917

Ask: Given C=CCC(OC(C)=O)[C@@H]1[C@@H](N(Cc2ccc(-c3ccccc3)cc2)C(=O)c2ccc(-c3ccccc3)cc2)c2cc(OCCCO)ccc2N1C(=O)c1ccc2ccccc2n1 (stereo partly specified) , state its recorded z-score.
Reply: 0.393

Ask: Given `COCCOC(=O)N1C(=O)[C@@]2(c3ccccc31)[C@H](C(=O)N1CCCCCCC1)[C@H]1C(=O)O[C@H](c3ccccc3)[C@H](c3ccccc3)N1[C@@H]2c1ccc(O)cc1` , state its recorded z-score.
Reply: 0.452

Ask: Given `C=CC[C@]1(C(=O)N(C)C)COC(c2ccc(OCCCO)cc2)=N1` , state its recorded z-score.
Reply: 0.345

Ask: Given CC(C)(C)N1CC=CC23O[C@@H]4/C=C\CCCOC(=O)C4[C@H]2C(=O)N(CCCCCCO)[C@@H]3C1=O (stereo partly specified) , state its recorded z-score.
Reply: 0.0079

Ask: Given `CC(C)CNC(=O)[C@@H]1c2ccccc2C(=O)N(C(C)C)[C@H]1c1ccc(CO)cc1` , state its recorded z-score.
Reply: 0.456

Ask: Given `CC(C)CNC(=O)[C@@]1(C)c2ccccc2C(=O)N(Cc2cc(F)cc(C(F)(F)F)c2)[C@H]1c1ccc(CO)cc1` , state its recorded z-score.
Reply: -0.0148

Ask: Given `O=C1N(CCS(=O)(=O)c2ccccc2)c2ccccc2[C@@H]2OC(c3ccc(OCCCO)cc3)=N[C@]12CCS(=O)(=O)c1ccccc1` , state its recorded z-score.
Reply: 0.762

Ask: Given CC(=O)c1ccc(C(O)C2C=CC3C(=O)NC(=O)C3N2Nc2ccc(Cl)cc2Cl)cc1 (stereo unspecified) , state its recorded z-score.
Reply: -0.807

Ask: Given `COc1ccc(C#Cc2ccc3c(c2)[C@]2(C(=O)N3)[C@H](c3ccc(OCCO)cc3)N3[C@H](c4ccccc4)[C@H](c4ccccc4)OC(=O)[C@H]3[C@@H]2C(=O)O)cc1` , state its recorded z-score.
Reply: 0.325

Ask: Given COc1ccc(NN2C(C(O)c3cc(C(F)(F)F)cc(C(F)(F)F)c3)C=CC3C(=O)N(C4CCCCC4)C(=O)C32)cc1 (stereo unspecified) , state its recorded z-score.
Reply: -0.557

Ask: Given `C=CCNC(=O)[C@@H]1[C@H]2C(=O)O[C@H](c3ccccc3)[C@H](c3ccccc3)N2[C@H](c2ccc(O)cc2)[C@@]12C(=O)Nc1ccc(C#CC3(O)CCCCCC3)cc12` , state its recorded z-score.
Reply: -1.04

Ask: Given `COCC1=C([C@H](O)CCc2ccccc2)[C@H](CO)n2c(=O)n(-c3ccccc3)c(=O)n2C1` , state its recorded z-score.
Reply: 0.119

Ask: Given Cc1ccccc1C(O)C1C=CC2C(=O)N(c3ccccc3)C(=O)C2N1Nc1ccccc1F (stereo unspecified) , state its recorded z-score.
Reply: 0.569

Ask: Given `COC(=O)[C@@]1(Cc2ccc(F)cc2)[C@H]2c3cc(C(=O)N(C)C)n(CCN4CCOCC4)c3C[C@H]2CN1C(=O)c1ccccc1` , state its recorded z-score.
Reply: -1.27

Ask: Given `NC(=O)NCC#Cc1ccc2c(c1)[C@]1(C(=O)N2)[C@H](C(=O)N2CCCCCCC2)[C@H]2C(=O)O[C@H](c3ccccc3)[C@H](c3ccccc3)N2[C@@H]1c1ccc(O)cc1` , state its recorded z-score.
Reply: -0.491
